- Measured Target: CHK1 (kinase domain) (Homo sapiens)
- Sequence (O14757 9-265 limits assumed): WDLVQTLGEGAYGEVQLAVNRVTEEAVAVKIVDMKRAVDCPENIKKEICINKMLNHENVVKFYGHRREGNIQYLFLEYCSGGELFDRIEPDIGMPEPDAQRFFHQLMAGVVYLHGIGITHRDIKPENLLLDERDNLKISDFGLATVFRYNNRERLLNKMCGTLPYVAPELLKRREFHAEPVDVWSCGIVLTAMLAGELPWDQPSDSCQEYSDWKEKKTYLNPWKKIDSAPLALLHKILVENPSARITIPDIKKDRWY
Recorded Ki by entry

{"columns": ["Compound", "Ki"],
 "data": [
  ["Cc1cn2c(-c3cncc(N[C@@H]4CCCN[C@@H]4C)n3)cnc2cn1 [Example 285]", "21.3 nM"],
  ["CCOc1ccc2c(c1)ncn2-c1cncc(N[C@@H]2CCCNC2)n1 [Example 214]", "0.935 nM"],
  ["CC1(COc2ccn3c(-c4cncc(N[C@@H]5CCNC5)n4)cnc3c2)COC1 [Example 154]", "3.9 nM"],
  ["FC(F)(F)c1ccn2c(-c3cncc(N[C@@H]4CCNC4)n3)cnc2c1 [Example 53]", "37 nM"],
  ["F[C@@H]1CNC[C@@H]1Nc1cncc(-c2cnn3ccccc23)n1 (relative stereo) [Example 45]", "585 nM"],
  ["CCOC[C@@H]1C[C@@H](Nc2cncc(-c3cnc4cc(C)ccn34)n2)CN1 [Example 241]", "45 nM"],
  ["CCc1cn2c(-c3cncc(N[C@H]4CNC[C@H]4CF)n3)cnc2s1 [Example 185]", "5.4 nM"],
  ["CCc1cn2c(-c3cncc(N[C@@H]4CC[C@H](C)NC4)n3)cnc2s1 [Example 103]", "26.5 nM"],
  ["COc1ccc2ncc(-c3cncc(N[C@@H]4CCCNC4)n3)n2c1 [Example 7]", "1.65 nM"],
  ["C[C@@H]1C[C@@H](Nc2cncc(-c3cnc4cc(C#N)ccn34)n2)CN1 [Example 189]", "17.9 nM"],
  ["COC[C@@H]1C[C@@H](Nc2cncc(-c3cnn4ccccc34)n2)CN1 [Example 261]", "14.9 nM"],
  ["CO[C@H]1CCNC[C@@H]1Nc1cncc(-c2cnc3ccccn23)n1 [Example 259]", "3.82 nM"],
  ["CCc1cn2c(-c3cncc(N[C@@H]4CCCN[C@H]4C)n3)cnc2s1 [Example 109]", "28.4 nM"],
  ["F[C@H]1CCNC[C@@H]1Nc1cncc(-c2cnc3ccccn23)n1 [Example 28]", "4.77 nM"],
  ["C[C@H]1NCCC[C@H]1Nc1cncc(-c2cnc3ccc(F)cn23)n1 [Example 164]", "18.4 nM"],
  ["c1ccn2c(-c3cncc(N[C@@H]4C[C@@H]5CN[C@H]4C5)n3)cnc2c1 [Example 123]", "3.22 nM"],
  ["OC[C@@H]1C[C@@H](Nc2cncc(-c3cnc4cc(Cl)ccn34)n2)CN1 [Example 245]", "4.72 nM"],
  ["C[C@@H]1CCNC[C@@H]1Nc1cncc(-c2cnc3ccccn23)n1 [Example 204]", "54.5 nM"]
]}

====

- Measured Target: CHK1 (kinase domain) (Homo sapiens, UniProt O14757)
- Sequence (O14757 9-265 limits assumed): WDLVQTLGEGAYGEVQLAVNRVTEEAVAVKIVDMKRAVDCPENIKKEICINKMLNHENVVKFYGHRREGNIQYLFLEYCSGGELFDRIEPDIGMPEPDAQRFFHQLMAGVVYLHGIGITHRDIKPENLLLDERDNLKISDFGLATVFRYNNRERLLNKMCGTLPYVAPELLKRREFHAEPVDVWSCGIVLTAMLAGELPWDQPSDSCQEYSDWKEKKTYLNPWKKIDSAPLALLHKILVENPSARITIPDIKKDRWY
pKi: −log10 of the molar value.
Recorded pKi by entry

{"columns": ["Compound", "pKi"],
 "data": [
  ["COc1ccn2c(-c3cncc(N[C@@H]4C5CCN(CC5)[C@@H]4C)n3)cnc2c1 [Example 19]", 6.78],
  ["F[C@@H]1CNC[C@H]1Nc1cncc(-c2cnc3cccnn23)n1 [Example 82]", 6.00],
  ["FC(F)(F)c1ccc2ncc(-c3cncc(NC4CNCCC4(F)F)n3)n2c1 (stereo not drawn) [Example 231]", 7.54],
  ["Cc1cn2c(-c3cncc(N[C@H]4CN[C@H](CO)C4)n3)cnc2s1 [Example 237]", 8.53],
  ["C[C@@H]1C[C@@H](Nc2cncc(-c3cnc4ccccn34)n2)CN1 [Example 144]", 8.50],
  ["COC[C@@H]1C[C@@H](Nc2cncc(-c3cnc4cc(Cl)ccn34)n2)CN1 [Example 244]", 7.80],
  ["C[C@H]1NCCC[C@@H]1Nc1cncc(-c2cnc3ccc(F)cn23)n1 [Example 172]", 6.75],
  ["COC[C@@H]1C[C@@H](Nc2cncc(-c3cnc4cc(C)ccn34)n2)CN1 [Example 239]", 7.14],
  ["CCOc1ccc2c(c1)ncn2-c1cncc(N[C@@H]2CCNC2)n1 [Example 217]", 8.16]
]}
